# assay-target: T1, HLA-A*03:01 (human)
# T1 construct: MHC class I monomer first loaded with a UV-sensitive peptide that is cleaved by UV irradiation and exchanged for the test peptide; captured on streptavidin plates; also called peptide-receptive MHC molecules
# assay: UV-ligand exchange, anti-b2m ELISA; peptide exchange yield grade (>10% +, >20% ++, >50% +++, >75% ++++)
Listing: peptide exchange yield of selected binders

IVYPSATDKTK    50 to 75%
SGSTLECILYK    > 75%
MLYYPSVSR    > 75%
IMKRQVKCITK    10 to 20%
ALSRMSQQY    > 75%

Exam item: Any idea what peptide exchange yield was measured for "AVAAVLLSR" ?
Marked response: 50 to 75%

Exam item: Any idea what peptide exchange yield was measured for "ASSFRPLLSK" ?
Marked response: 50 to 75%

Exam item: Any idea what peptide exchange yield was measured for "AIGTPLIGK" ?
Marked response: 50 to 75%

Exam item: Any idea what peptide exchange yield was measured for "KARDLRTPK" ?
Marked response: 50 to 75%

Exam item: Any idea what peptide exchange yield was measured for "VSIRNTLLY" ?
Marked response: 10 to 20%

Exam item: Any idea what peptide exchange yield was measured for "GTHVWVGLYK" ?
Marked response: > 75%

Exam item: Any idea what peptide exchange yield was measured for "TMWQIPQEFVK" ?
Marked response: > 75%
